FYI, the data here is from the supplement of paper PMC11451515.

Exercise: state measured cell viability for each of the compounds provided.
# Tested on: P12-Ichikawa
# assay_notes: cell viability relative to DMSO control; higher = less cytotoxic
# settings: HPLM + 10% dialyzed FBS; 48 h; 1.71 µM
Write the answer as a number in %, unit excluded.

Task: Would you mind telling me what cell viability value was observed for "O=C1c2c(O)ccc(O)c2C(=O)c2c(NCCNCCO)ccc(NCCNCCO)c21" ?
Result: 36.9

Task: Let us now turn to C[C@]12CC[C@@H]3c4ccc(O)cc4C[C@@H](CCCCCCCCC[S+]([O-])CCCC(F)(F)C(F)(F)F)[C@H]3[C@@H]1CC[C@@H]2O (some centres undefined)
Result: 112

Task: Now consider "NC(=O)c1ccc(I)c([N+](=O)[O-])c1" .
Result: 134

Task: Okay, and CC(N)C12CC3CC(CC(C3)C1)C2 (centres undefined) ?
Result: 114

Task: Cool, now O=C(O)C1=NC(C(=O)O)CC(/C=C/N2c3cc(O)c(OC4OC(CO)C(O)C(O)C4O)cc3CC2C(=O)O)=C1 (centres undefined)
Result: 102

Task: Here is the next compound: "CNc1nccc(-c2cccnc2Oc2cc(C(=O)Nc3cccc(C(F)(F)F)c3)ccc2C)n1"
Result: 123

Task: Consider next the compound CCOC(=O)\C1=C(/C)N\C2=C(C1C3=CC=C(C=C3)C4=CC=CC=C4)\C(=O)CC(C)(C)C2 (centres undefined) in the same way.
Result: 107

Task: Next up: "O=C(NC[C@H](O)CO)c1ccncc1Nc1ccc(I)cc1F"
Result: 102

Task: Try the compound "CC/1=C(/N2[C@H](SC1)[C@H](NC(=O)[C@H](N)\C3=C\C\C=C/C3)C2=O)C(O)=O"
Result: 126

Task: And then "C\C1=C(\C=C(\C#N)C(=O)N1)C2=CC=NC=C2" , what is it?
Result: 115

Task: Note, next up: "COc1ncc(-c2ccc3nccc(-c4ccnnc4)c3c2)cc1N[S+](=O)([O-])c1ccc(F)cc1F"
Result: 74.8

Task: Likewise for "FC(F)c1nc2ccccc2n1-c1nc(N2CCOCC2)nc(N2CCOCC2)n1" ?
Result: 78.5

Task: Next: "N=C(NCCCCCCNC(=N)NC(=N)Nc1ccc(Cl)cc1)NC(=N)Nc1ccc(Cl)cc1"
Result: 101

Task: "O=C(Nc1ccccc1-c1cn2c(CN3CCNCC3)csc2n1)c1cnc2ccccc2n1" , same question.
Result: 84.5

Task: Next entry: "C#C[C@]1(O)CC[C@H]2[C@@H]3CCc4cc(O)ccc4[C@H]3CC[C@@]21C"
Result: 97.3

Task: And for "Cc1cn([C@@H]2O[C@H](CO)[C@@H](O)[C@@H]2F)c(=O)[nH]c1=O" ?
Result: 124

Task: Record: "CN(C)[C@H]\1[C@@H]2C[C@H]3C(=C(O)\[C@]2(O)C(=O)\C(=C1O)C(N)=O)/C(=O)C4=C(O)C=CC=C4[C@@]3(C)O"
Result: 111

Task: Another: "Cc1c(NC(=O)OC[C@@H]2COCCN2)cn2ncnc(Nc3ccc4c(cnn4Cc4cccc(F)c4)c3)c12"
Result: 94.3

Task: Next: "Cc1ccc([S+](=O)([O-])N[C@@H](Cc2ccccc2)C(=O)CCl)cc1"
Result: 106

* * *

# System: SEM cells
# assay_notes: cell viability relative to DMSO control; higher = less cytotoxic
# settings: RPMI 5 mM glucose + 10% dialyzed FBS; 48 h; 0.00234 µM
Task for the reader: assign each of the following molecules its reported cell viability.
Could you give me the number in %? Just the number is fine.

Task: Sample "NC(=O)c1ccc(I)c([N+](=O)[O-])c1" — what was its cell viability?
Result: 113

Task: Here is the next molecule: CCOC(=O)\C1=C(/C)N\C2=C(C1C3=CC=C(C=C3)C4=CC=CC=C4)\C(=O)CC(C)(C)C2 (centres undefined)
Result: 116

Task: Also CNC1CCC(N(Cc2cccc(-c3ccncc3)c2)C(=O)c2sc3c(F)ccc(F)c3c2Cl)CC1 (centres undefined) ?
Result: 99.3

Task: Please do the same for "CC(C)C(=O)Nc1ccc([N+](=O)[O-])c(C(F)(F)F)c1" as well.
Result: 119

Task: Field entry: "CC1(C)O[C@@H]2C[C@H]3[C@@H]4CCC5=CC(=O)C=C[C@]5(C)[C@H]4[C@@H](O)C[C@]3(C)[C@]2(C(=O)CO)O1"
Result: 37.8

Task: # repeat for "Cc1cn(-c2cc(NC(=O)c3ccc(C)c(Nc4nccc(-c5cccnc5)n4)c3)cc(C(F)(F)F)c2)cn1"
Result: 106

Task: Entry to check: "O=C(Nc1c(Cl)cncc1Cl)c1ccc(OC(F)F)c(OCC2CC2)c1"
Result: 90.5

Task: Cool, now "C[C@]1(c2nc3c(C(N)=O)cccc3[nH]2)CCCN1"
Result: 63.7

Task: Try the molecule "O=C(Nc1cc2cc[nH]c2cn1)c1ccccc1"
Result: 95.1

* * *

# Tested on: NOMO1
# assay_notes: cell viability relative to DMSO control; higher = less cytotoxic
# settings: RPMI 5 mM glucose + 10% FBS; 48 h; 15.4 µM
outcome_measure: cell viability (%)
Write down the numeric answer in % and omit the unit.

Task: Using the record for "C[C@@H]1[C@H](O)[C@@H](C)/C=C/C=C/C=C/C=C/C=C/C=C/C=C/[C@H](O[C@@H]2O[C@H](C)[C@@H](O)[C@H](N)[C@@H]2O)C[C@@H]2O[C@](O)(C[C@@H](O)C[C@@H](O)[C@H](O)CC[C@@H](O)C[C@@H](O)CC(=O)O[C@H]1C)C[C@H](O)[C@H]2C(=O)O" , report its cell viability.
Result: 118

Task: Next up: "CCC[C@H]1C[C@H](C(=O)N[C@@H]([C@@H]2O[C@@H](SC)[C@@H](O)[C@@H](O)[C@H]2O)[C@H](C)Cl)N(C)C1"
Result: 126

Task: // query: "COc1ccc(-c2ccc3c(N4CCOC[C@@H]4C)nc(N4CCOC[C@@H]4C)nc3n2)cc1CO"
Result: 41.7

Task: Again, but for O=C(O)C1=NC(C(=O)O)CC(/C=C/N2c3cc(O)c(OC4OC(CO)C(O)C(O)C4O)cc3CC2C(=O)O)=C1 (stereo unspecified)
Result: 90.6

Task: Quick one: "N#Cc1c(NC(=O)c2cccc3ccccc23)sc2c1CCCC2"
Result: 21.7

Task: What would you report for "O=C(O)c1ccc2c(c1)nc(Nc1cccc(Cl)c1)c1ccncc12" ?
Result: 65.6

* * *

# Test system: P12-Ichikawa
# assay_notes: cell viability relative to DMSO control; higher = less cytotoxic
# settings: RPMI 5 mM glucose + 10% dialyzed FBS; 48 h; 0.569 µM
Could you please report measured cell viability for the items listed next?
Write the number in % without appending the unit.

Task: Missing value: cell viability, P12-Ichikawa, entry "CN[C@@H]1[C@H](O)[C@H](NC)[C@H]2O[C@@]3(O)C(=O)C[C@@H](C)O[C@H]3O[C@@H]2[C@H]1O" . Fill in?
Result: 117

Task: Then this compound: "O=C(Nc1c(Cl)cncc1Cl)c1ccc(OC(F)F)c(OCC2CC2)c1"
Result: 114

Task: Next record, please: "CCn1c(-c2nonc2N)nc2cnc(Oc3cccc(NC(=O)c4ccc(OCCN5CCOCC5)cc4)c3)cc21"
Result: 117

Task: And "CC/1=C(/N2[C@H](SC1)[C@H](NC(=O)[C@H](N)\C3=C\C\C=C/C3)C2=O)C(O)=O" ?
Result: 118

Task: Then what about the compound "Cc1ccc([S+](=O)([O-])N[C@@H](Cc2ccccc2)C(=O)CCl)cc1" ?
Result: 93.2

Task: Now give it for "C=C[C@H]1CN2CC[C@H]1C[C@H]2[C@H](O)c1ccnc2ccc(OC)cc12" too.
Result: 94.1

Task: Record: "OC1=CC2=C(C(=C1)O)C(=O)\C=C(/O2)C3=CC=CC=C3"
Result: 114

Task: Next entry: "C=C(C)[C@H]1Cc2c(ccc3c2O[C@@H]2COc4cc(OC)c(OC)cc4[C@@H]2C3=O)O1"
Result: 76.6

* * *

# Tested on: SEM cells
# assay_notes: cell viability relative to DMSO control; higher = less cytotoxic
# settings: RPMI 5 mM glucose + 10% FBS; 48 h; 0.0632 µM
Provide the recorded cell viability for the entries that follow.
Write the answer as a number in %, unit excluded.

Task: Item under review: CCOC(=O)\C1=C(/C)N\C2=C(C1C3=CC=C(C=C3)C4=CC=CC=C4)\C(=O)CC(C)(C)C2 (configuration not stated) . Reported cell viability?
Result: 144

Task: Try the compound "O=C1c2c(O)ccc(O)c2C(=O)c2c(NCCNCCO)ccc(NCCNCCO)c21"
Result: 97.5

Task: What do you have for "C[C@@H]1[C@H](O)[C@@H](C)/C=C/C=C/C=C/C=C/C=C/C=C/C=C/[C@H](O[C@@H]2O[C@H](C)[C@@H](O)[C@H](N)[C@@H]2O)C[C@@H]2O[C@](O)(C[C@@H](O)C[C@@H](O)[C@H](O)CC[C@@H](O)C[C@@H](O)CC(=O)O[C@H]1C)C[C@H](O)[C@H]2C(=O)O" ?
Result: 105

Task: Now the compound Nc1nc(N)c2nc(CNc3ccc(C(=O)NC(CCC(=O)O)C(=O)O)cc3)cnc2n1 (configuration not stated)
Result: 92.2

Task: Try "N#Cc1c(NC(=O)c2cccc3ccccc23)sc2c1CCCC2" next.
Result: 119

Task: Follow-up entry: "C/C=C(/C)C(=O)O[C@H]1C(C)=C[C@]23C(=O)[C@@H](C=C(CO)[C@@H](O)[C@]12O)[C@H]1[C@@H](C[C@H]3C)C1(C)C"
Result: 100

Task: Lookup "Cc1cc2c(F)c(Oc3ncnn4cc(OC[C@@H](C)O)c(C)c34)ccc2[nH]1"
Result: 110
